Sourced from patent US20230382928A1

- test: Quantum yield of europium complexes at different pH
- Type: physicochemical
- test-context: pH 4; text gives the same values in %
Q.Y. pH 4 reference
reported-property: Q.Y. pH 4 (%)

CCN(CC)c1cc(C#Cc2cc(CN(CC(=O)O)CC(=O)O)nc(CN(CC(=O)O)CC(=O)O)c2)ccc1OCCCN :: 3.2
CCN(C)c1cc(C#Cc2cc(CN3CCN(Cc4cc(C#Cc5ccc(OCCCC(=O)NCCCS(=O)(=O)[O-])c(N(C)CC)c5)cc(P(C)(=O)[O-])n4)CCN(Cc4cc(CCCNC(=O)OC(C)(C)C)cc(P(C)(=O)[O-])n4)CC3)nc(P(C)(=O)[O-])c2)ccc1OCCCC(=O)NCCCS(=O)(=O)[O-].[Eu+3] [Complex 78b] :: 14.5

###

Reported ΦpH 4 (quantum yield) values follow for various compounds
- test: Quantum yield of europium complexes at different pH
- Type: physicochemical
- test-context: pH 4; λexc 330-332 nm
reported-property: ΦpH 4 (quantum yield) (%)

CCN(CC)c1cc(C#Cc2cc(CN3CCN(Cc4cc(C#Cc5ccc(OCCCC(=O)NCCCS(=O)(=O)[O-])c(N(CC)CC)c5)cc(P(C)(=O)[O-])n4)CCN(Cc4cc(CCCNC(=O)OC(C)(C)C)cc(P(C)(=O)[O-])n4)CC3)nc(P(C)(=O)[O-])c2)ccc1OCCCC(=O)NCCCS(=O)(=O)[O-].[Eu+3] [Complex 78a] :: 16
CCN(CC)c1cc(C#Cc2cc(CN(CC(=O)O)CC(=O)O)nc(CN(CC(=O)O)CC(=O)O)c2)ccc1OCCCN [Complex 104] :: 3.2
CCN(CC)c1cc(C#Cc2cc(CN3CCN(Cc4cccc(P(C)(=O)[O-])n4)CCN(Cc4cccc(P(C)(=O)[O-])n4)CC3)nc(P(C)(=O)[O-])c2)ccc1OC.[Eu+3] [Complex 14] :: 16.8

###

- test: Quantum yield of europium complexes at different pH
- Format: physicochemical
- test-context: pH 4; λexc 330-332 nm
# Lookup of reported ΦpH 4 (quantum yield) keyed by entry
reported-property: ΦpH 4 (quantum yield) (%)

CCN(CCCS(=O)(=O)O)c1cc(C#Cc2cc(CN3CCN(Cc4cc(C#Cc5ccc(OC)c(N(CC)CCCS(=O)(=O)O)c5)cc(P(C)(=O)O)n4)CCN(Cc4cc(CCCNC(=O)OC(C)(C)C)cc(P(C)(=O)O)n4)CC3)nc(P(C)(=O)O)c2)ccc1OC [Complex 88a] :: 13.4
CCN(C)c1cc(C#Cc2cc(CN3CCN(Cc4cc(C#Cc5ccc(OCCCC(=O)NCCCS(=O)(=O)[O-])c(N(C)CC)c5)cc(P(C)(=O)[O-])n4)CCN(Cc4cc(CCCNC(=O)OC(C)(C)C)cc(P(C)(=O)[O-])n4)CC3)nc(P(C)(=O)[O-])c2)ccc1OCCCC(=O)NCCCS(=O)(=O)[O-].[Eu+3] [Complex 78b] :: 14.5

###

- test: Excited state (emission) lifetime at different pH
- Type: physicochemical
- test-context: pH 5
// reported Excited state lifetime for each item listed
reported-property: Excited state lifetime (ms)

CCN(CC)c1cc(C#Cc2cc(CN3CCN(Cc4cccc(P(C)(=O)[O-])n4)CCN(Cc4cccc(P(C)(=O)[O-])n4)CC3)nc(P(C)(=O)[O-])c2)ccc1OC.[Eu+3] [Complex 14] :: 1.15
CCN(CC)c1cc(C#Cc2cc(CN3CCN(Cc4cc(C#Cc5ccc(OCCCC(=O)NCCCS(=O)(=O)[O-])c(N(CC)CC)c5)cc(P(C)(=O)[O-])n4)CCN(Cc4cc(CCCNC(=O)OC(C)(C)C)cc(P(C)(=O)[O-])n4)CC3)nc(P(C)(=O)[O-])c2)ccc1OCCCC(=O)NCCCS(=O)(=O)[O-].[Eu+3] [Complex 78a] :: 0.98
CCN(CC)c1cc(C#Cc2cc(CN(CC(=O)O)CC(=O)O)nc(CN(CC(=O)O)CC(=O)O)c2)ccc1OCCCN [Complex 104] :: 0.37
